# Test system: CYP2B6 mRNA (CAR-dependent)
# Assay: CAR-agonistic response: induction of CYP2B6 mRNA in differentiated HepaRG cells
# Type: cell-based, human
# Experimental Parameters: human, differentiated HepaRG cells
Quantity Kind: EC50 at 24 h (µM)
Report the figure in µM without appending any unit label.

Q: Provide one value: measured EC50 at 24 h of Clc1ccc(Cl)c(-c2c(Cl)ccc(Cl)c2Cl)c1Cl [(+)-PCB 136, 2,2',3,3',6,6'-hexachlorobiphenyl]
Result: 6.6
